List of switch fluorescence ratio values.
- Test system: ATP;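 further: ATP exposure 15 min at 22 °C before imaging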
- assay text: switch fluorescence ratio, 500 uM ATP over buffer (Cy3 cluster intensity, sum of 5 cycles each) (fold (ratio)); higher = stronger signal-on switching upon ATP binding; sequences stand for … in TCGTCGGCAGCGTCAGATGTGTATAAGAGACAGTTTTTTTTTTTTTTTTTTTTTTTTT…TC
- measurement context: aptamer strand: ATP DNA aptamer (quencher-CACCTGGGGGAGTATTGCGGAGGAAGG + anchor), 100 nM annealed; ATP concentration: 500 uM

Worked cases, switch fluorescence ratio given:
| entry sequence | switch fluorescence ratio |
| --- | --- |
| ATTTATGTTG | 1.01 |
| AGGTGAGAAT | 1.16 |

--- query ---
Field switch fluorescence ratio (entry `AGTTTGTTGT` ) reads 1.06

====

List of switch fluorescence ratio values.
- Test system: ATP;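 further: ATP exposure 15 min at 22 °C before imaging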
- assay text: switch fluorescence ratio, 500 uM ATP over buffer (Cy3 cluster intensity, sum of 5 cycles each) (fold (ratio)); higher = stronger signal-on switching upon ATP binding; sequences stand for … in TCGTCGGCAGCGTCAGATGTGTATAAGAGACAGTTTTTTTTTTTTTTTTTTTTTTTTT…TC
- measurement context: aptamer strand: ATP DNA aptamer (quencher-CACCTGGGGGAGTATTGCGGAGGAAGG + anchor), 100 nM annealed; ATP concentration: 500 uM
Just the number, please, no unit attached.

Worked cases, switch fluorescence ratio given:
| entry sequence | switch fluorescence ratio |
| --- | --- |
| GCTGGACTTG | 0.998 |
| TGCATCTGAG | 1 |
| TAAATCCGGT | 0.997 |
| TGTCGGGGAG | 1.01 |
| CTCCCACACG | 2.35 |

ATP assay, sequence `ACGATGGGGA` , recorded switch fluorescence ratio = 1.04

ATP assay, sequence `ATGCCGAAGG` , recorded switch fluorescence ratio = 0.985

ATP assay, sequence `TGGCGGACGT` , recorded switch fluorescence ratio = 1

ATP assay, sequence `AAGTTTTGCA` , recorded switch fluorescence ratio = 1.01

ATP assay, sequence `GAGTGGAAGC` , recorded switch fluorescence ratio = 0.964

ATP assay, sequence `TATATATTTA` , recorded switch fluorescence ratio = 0.988

ATP assay, sequence `CGGGAGGGAC` , recorded switch fluorescence ratio = 0.994

ATP assay, sequence `TTTTTATTTG` , recorded switch fluorescence ratio = 0.995

ATP assay, sequence `TGGGGCTTTA` , recorded switch fluorescence ratio = 1.06

ATP assay, sequence `GCCGTAATGG` , recorded switch fluorescence ratio = 1.24

ATP assay, sequence `GCCTAAATGC` , recorded switch fluorescence ratio = 1.44

ATP assay, sequence `TCTTTTAAAG` , recorded switch fluorescence ratio = 0.988

====

- System: ATP;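 further: ATP exposure 15 min at 22 °C before imaging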
- assay text: switch fluorescence ratio, 500 uM ATP over buffer (Cy3 cluster intensity, sum of 5 cycles each) (fold (ratio)); higher = stronger signal-on switching upon ATP binding; sequences stand for … in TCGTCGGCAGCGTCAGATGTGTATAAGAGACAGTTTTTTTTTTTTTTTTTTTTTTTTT…TC
- measurement context: aptamer strand: ATP DNA aptamer (quencher-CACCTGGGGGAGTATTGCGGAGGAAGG + anchor), 100 nM annealed; ATP concentration: 500 uM
Classify by measured switch fluorescence ratio: YES if it is equal to or exceeds 1, NO if it is smaller.

Solved entries:
| entry sequence | group label |
| --- | --- |
| AATGGTGTAC | YES |
| AGGGTAGAGC | YES |
| CGTACCAGGG | YES |
| TACAGGGGGC | YES |
| TGGTTTTTGC | NO |

# bool: switch fluorescence ratio of `TCGGGGACCG` >= 1
NO

# bool: switch fluorescence ratio of `CCAAGGCGAT` >= 1
YES

# bool: switch fluorescence ratio of `AGCATACCTT` >= 1
YES

# bool: switch fluorescence ratio of `TTATCAACAC` >= 1
YES

# bool: switch fluorescence ratio of `AAGATACGTT` >= 1
YES

# bool: switch fluorescence ratio of `TCAAGGGTTC` >= 1
YES
